Where pKa equals or exceeds 9, the correct label is Condition met; where it does not, the label is Condition not met.

Below are worked cases with known answers.
[
  {
    "COMPOUND": "CN(C)CCC=C1c2ccccc2CCc2ccccc21",
    "ASSIGNED CATEGORY": "Condition met"
  },
  {
    "COMPOUND": "CN1CCN2c3ncccc3Cc3ccccc3C2C1 (configuration not stated)",
    "ASSIGNED CATEGORY": "Condition not met"
  }
]

Okay, next one:
Request: Given the entry CCOC(=O)C1(c2ccccc2)CCN(C)CC1 , answer whether its pKa meets or surpasses 9.
Result: Condition not met

----------
REPORTED PROPERTY: pKa
# print the numeric value only

[
  {
    "MOLECULE": "CCN(C)C(=O)Oc1cccc([C@H](C)N(C)C)c1",
    "pKa": 8.99
  }
]

Request: Using known records, supply pKa for CC(CN1c2ccccc2Sc2ccccc21)N(C)C (centres undefined)
Result: 9.1

Request: Tell me measured pKa for CC(C)NCC(O)COc1ccc(CCOCC2CC2)cc1 (centres undefined) please.
Result: 9.21

Request: Respond only with pKa recorded for CC(C)(C)NCC(O)COc1nsnc1N1CCOCC1 (centres undefined)
Result: 8.8
